Where these numbers come from: patent US20210261605A1

# Study target: IgG1 (product of Sigma-Aldrich)
# Test method notes: SPR (Biacore T100), Fc-binding protein immobilized on CM5 chip, IgG1 in flow
Measured endpoint: Kd (nM)
Please state the figure in nM; there is no need to write the unit.

// below: answered binders
FcR9_I (SEQ ID NO: 24), Fc-binding protein containing the amino acid substitution Val192Ile (receptor) KIEEAMGMRTEDLPKAEVILEPQWNRVLEKDSVTLKCRGAYSPEDNSTQWFHNESLISSQASSYLIDAATVDDSGEYRCQTSLSTLSDPVQLEVHIGWLLLQAPRWEFKEGDPIHLRCHSWKNTALHKVTYLQNGKGRKYFHHNSDFYIPKATLKDSGSYSCRGLIGSKNVSSETVNITITQGGHHHHHH ... 60
FcR35d-containing Fc-binding protein (SEQ ID NO: 7) (receptor) KIEEAMGMRTGDMPKAEVILEPPWNRVLEQDSVTLKCRGAHSPDDDSTQWFHNERLIPSQASSFIIDSASVDDSGEYRCQTSLSTLSDPVQLEVHIGWLLLQAPRWEFVEGEPIHLRCHSWRNTALHKVMFLQNGKVRKYFHHNSDFVIPKATLEDSGSYSCRGLVGRKKVSSGAVDITVTQGGHHHHHH ... 39
FcR36a-containing Fc-binding protein (SEQ ID NO: 11) (receptor) KIEEAMGMRTGDMPKAEVILEPPWNRVLEQDSVTLKCRGAHSPDDDSTQWFHNERLIPSQASSFIIDSASVDDSGEYRCQTSLSTLSDPVQLEVHIGWLLLQAPRWEFVEGEPIHLRCHSWRNTALHKVMFLQNGKVRKYFHHNSDFVIPKATLEDSGSYSCRGLAGRKKVSSGAVDITVTQGGHHHHHH ... 95
Fc-binding protein FcR9 (SEQ ID NO: 20) (receptor) KIEEAMGMRTEDLPKAEVILEPQWNRVLEKDSVTLKCRGAYSPEDNSTQWFHNESLISSQASSYLIDAATVDDSGEYRCQTSLSTLSDPVQLEVHIGWLLLQAPRWEFKEGDPIHLRCHSWKNTALHKVTYLQNGKGRKYFHHNSDFYIPKATLKDSGSYSCRGLVGSKNVSSETVNITITQGGHHHHHH ... 77
FcR9_A (SEQ ID NO: 26), Fc-binding protein containing the amino acid substitution Val192Ala (receptor) KIEEAMGMRTEDLPKAEVILEPQWNRVLEKDSVTLKCRGAYSPEDNSTQWFHNESLISSQASSYLIDAATVDDSGEYRCQTSLSTLSDPVQLEVHIGWLLLQAPRWEFKEGDPIHLRCHSWKNTALHKVTYLQNGKGRKYFHHNSDFYIPKATLKDSGSYSCRGLAGSKNVSSETVNITITQGGHHHHHH ... 36

Problem: Returns the measured Kd for the input binder. Input: FcR35c-containing Fc-binding protein (SEQ ID NO: 5) (receptor) KIEEAMGMRTGDMPKAEVILEPPWNRVLEQDSVTLKCRGAHSPDDDSTQWFHNESLIPSQASSFIIDSASVEDSGEYRCQTSLSTLSEPVLLEVHIGWLLLQAPRWEFVEGEPIHLRCHSWRNTALHKVMFLQNGKVRKYFHHNSDFVIPKATLEDSGSYSCRGLVGRKNVSSEAVEITVTPGGHHHHHH
Solution: 40
